Experiment: chemical genetic growth profiling, strain panel (AID 1159580);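 note: tested at 20 µM; growth read once vehicle control cultures reached saturation at 30 °C; 1 = growth at the plate median or of vehicle wells; lower values mean less growth of the strain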
Settings: S. cerevisiae deletion strains, growth OD, locus YEL037C, strain rad23
Out of some 5,500 compounds screened, about 2,000 (36%) were called active. About 18% were inconclusive and are not listed. Cut-off read from the data, not from the text of the source: active = normalized growth mostly below about 0.91 (no sharp cut-off); inconclusive = no clear call, values can overlap the other calls; inactive = mostly above about 0.92. Some of the results follow.
Classes used: 1 for active, 0 for inactive

{"molecule": "Cn1c(=O)c2[nH]c(C3CCCC3)nc2n(C)c1=O", "group": 0}
{"molecule": "N[C@H](CO)Cc1ccccc1", "group": 0}
{"molecule": "C[C@@H]1CC[C@@]2(OC1)OC1C(O)C3C4CC[C@H]5C[C@H](O[C@@H]6O[C@H](CO)[C@H](O[C@@H]7O[C@H](CO)[C@@H](O)[C@H](O[C@@H]8OC[C@@H](O)[C@H](O)[C@H]8O)[C@H]7O[C@@H]7O[C@H](CO)[C@H](O)[C@H](O[C@@H]8O[C@H](CO)[C@@H](O)[C@H](O)[C@H]8O)[C@H]7O)[C@H](O)[C@H]6O)[C@H](O)C[C@]5(C)C4CC[C@]3(C)C1[C@@H]2C (some centres not stated)", "group": 0}
{"molecule": "COc1cc([C@@H]2c3cc4c(cc3C(O[C@@H]3O[C@@H]5CO[C@@H](c6cccs6)OC5[C@H](O)[C@H]3O)C3COC(=O)[C@@H]32)OCO4)cc(OC)c1O (some centres not stated)", "group": 0}
{"molecule": "C=C1C2CC[C@@]3(C)[C@H](c4ccoc4)OC(=O)C[C@]13O[C@H]1CC(=O)C(C)(C)[C@H](C(O)C(=O)OC)[C@@]21C (some centres not stated)", "group": 0}
{"molecule": "O=c1[nH]c2cc(Cl)c(Cl)cc2[nH]c1=O", "group": 0}
{"molecule": "O=C1c2c(O)ccc(O)c2C(=O)c2c(NCCNCCO)ccc(NCCNCCO)c21", "group": 1}

###

Test: chemical genetic growth profiling, strain panel (AID 1159580);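 note: tested at 20 µM; growth read once vehicle control cultures reached saturation at 30 °C; 1 = growth at the plate median or of vehicle wells; lower values mean less growth of the strain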
Conditions: S. cerevisiae deletion strains, growth OD, locus YGR052W, strain FMP48, active compounds read low
The campaign covered roughly 5,500 compounds. About 2,000 (36%) were called active. Not shown: some 18% with an inconclusive outcome. The list shows a part of the results.

{"molecule": "O=C1Nc2ccccc2/C1=N/N=C\\c1ccccc1Cl", "normalized growth": 0.838}
{"molecule": "CCC(C)Cn1c(Sc2ncc([N+](=O)[O-])s2)n[nH]c1=O (stereo unspecified)", "normalized growth": 0.776}
{"molecule": "CC(C)(C)c1csc(NNC(=O)c2ccc(Cl)cc2)n1", "normalized growth": 0.923}
{"molecule": "CCn1nc(C)cc1-c1nnc(Sc2ncc([N+](=O)[O-])s2)n1C", "normalized growth": 1.02}
{"molecule": "O=C1c2ccccc2O[C@@H](c2ccccc2)[C@@H]1NCc1ccccc1", "normalized growth": 0.856}
{"molecule": "CC(C)(C)c1cc2nc(C(F)(F)F)cc(NNC(=O)c3ccc(Cl)cc3)n2n1", "normalized growth": 1.12}

###

Experiment: chemical genetic growth profiling, strain panel (AID 1159580);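 note: tested at 20 µM; growth read once vehicle control cultures reached saturation at 30 °C; 1 = growth at the plate median or of vehicle wells; lower values mean less growth of the strain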
Settings: S. cerevisiae deletion strains, growth OD, locus YKL085W, strain MDH1, active compounds read low
The whole screen tested about 5,500 compounds, of which about 2,000 (36%) were called active. Roughly 18% stayed inconclusive and do not appear here. The list shows a part of the results.
Measured normalized growth by item

{"compound": "CN1CCOC(c2ccccc2)c2ccccc2C1 (stereo not drawn)", "normalized growth": 0.996}
{"compound": "CC(=O)Nc1ccc(OC(=O)c2ccccc2O)cc1", "normalized growth": 0.95}
{"compound": "CCOC(=O)C1C(C=C(C)C)C1(C)C (stereo not drawn)", "normalized growth": 1.01}
{"compound": "NC(=O)CC[C@@H](N)C(=O)O", "normalized growth": 1.01}
{"compound": "CC(=O)O[C@H]1C[C@H](O[C@H]2[C@@H](O)C[C@H](O[C@H]3[C@@H](O)C[C@H](O[C@H]4CC[C@@]5(C)C(CCC6C5C[C@@H](O)[C@]5(C)[C@@H](C7=CC(=O)OC7)CC[C@]65O)C4)O[C@@H]3C)O[C@@H]2C)O[C@H](C)[C@H]1O[C@@H]1O[C@H](CO)[C@@H](O)[C@H](O)[C@H]1O (stereo partly drawn)", "normalized growth": 1}
{"compound": "C[C@@H]1CC[C@@]2(OC1)OC1C(O)C3C4CC[C@H]5C[C@H](O[C@@H]6O[C@H](CO)[C@H](O[C@@H]7O[C@H](CO)[C@@H](O)[C@H](O[C@@H]8OC[C@@H](O)[C@H](O)[C@H]8O)[C@H]7O[C@@H]7O[C@H](CO)[C@H](O)[C@H](O[C@@H]8O[C@H](CO)[C@@H](O)[C@H](O)[C@H]8O)[C@H]7O)[C@H](O)[C@H]6O)[C@H](O)C[C@]5(C)C4CC[C@]3(C)C1[C@@H]2C (stereo partly drawn)", "normalized growth": 0.0597}
{"compound": "CN1CCc2c(c3ccccc3n2Cc2ccccc2)C1", "normalized growth": 0.99}
{"compound": "CC[N+]1(C)CCCC(OC(=O)C(O)(c2ccccc2)c2ccccc2)C1 (stereo not drawn)", "normalized growth": 0.994}
